# Tested on: MALME-3M melanoma
# test details: NCI-60 one-dose screen, 48 h (100 = growth as untreated, 0 = no growth, -100 = all killed)
# measurement conditions: 10 µM unless noted
The panel holds about 83,000 compounds, 20% with a hit somewhere; the sample as a whole holds those more often.
Catalogue of growth readings, one per entry.
State just the number; it will be interpreted in %.

Example entries and their recorded answers appear below.
compound | growth (%)
COc1ccc(C/C(C)=C(/c2ccc(OCCN3CCCC3)cc2)c2ccc(OC(=O)NCc3ccccc3)cc2)cc1 | 83.6
Clc1ccc2c(c1)N(c1ncnc3ccc(-c4cnc5[nH]ccc5c4)cc13)CC2 | 7.46
COc1ccc(/C=C2/C(=O)N=C3N2NC(c2ccccc2)=CN3c2ccccc2)cc1 | 102
CN(Cc1ccccc1)c1nc(Cl)c(C2CC(c3ccc(F)cc3)=NN2C=O)s1 (stereo unspecified) | 105
OB(O)c1ccsc1-c1nc2ccc3[nH]ncc3c2c2c1CCCC2 | 77.9

**Q:** Which measured growth value corresponds to Cc1ccc(S(=O)(=O)OC[C@@]2(C)CC[C@]3(C)CC[C@]4(C)C(=CC[C@@H]5[C@@]6(C)CCCNC(C)(C)[C@@H]6CC[C@]54C)[C@@H]3C2)cc1 ?
**A:** -75.8

**Q:** Do the same for CN1CCN(Cc2ccc(NC(=O)c3cccc(C#Cc4c(N)ncc5ccc(F)cc45)c3)cc2C(F)(F)F)CC1 please
**A:** -54.5

**Q:** Another: C=C1C(=O)O[C@H]2[C@H]1CC/C(CNS(=O)(=O)c1ccc3ccccc3c1)=C\CC[C@@]1(C)O[C@@H]21
**A:** -22.6

**Q:** Now this one: CN1CCCc2cc(/C=C3\SC(=S)N(C(Cc4ccc(O)cc4)C(=O)O)C3=O)ccc21 (stereo unspecified)
**A:** 88.9

**Q:** Ok, now Cn1ccnc1CN1CCSC(C(=O)Nc2ccccc2)C1 (stereo unspecified)
**A:** 96.6

**Q:** Cool, now COC(=O)c1c2c(c(C)[n+]([O-])c1C)C(=O)C(NCCN1CCOCC1)=CC2=O
**A:** -13.2
